The reported measurements were obtained from patent US11339130B1.

Target: Human Calpain 2/NS1 (Homo sapiens, UniProt P17655)
Sequence (P17655 1-700): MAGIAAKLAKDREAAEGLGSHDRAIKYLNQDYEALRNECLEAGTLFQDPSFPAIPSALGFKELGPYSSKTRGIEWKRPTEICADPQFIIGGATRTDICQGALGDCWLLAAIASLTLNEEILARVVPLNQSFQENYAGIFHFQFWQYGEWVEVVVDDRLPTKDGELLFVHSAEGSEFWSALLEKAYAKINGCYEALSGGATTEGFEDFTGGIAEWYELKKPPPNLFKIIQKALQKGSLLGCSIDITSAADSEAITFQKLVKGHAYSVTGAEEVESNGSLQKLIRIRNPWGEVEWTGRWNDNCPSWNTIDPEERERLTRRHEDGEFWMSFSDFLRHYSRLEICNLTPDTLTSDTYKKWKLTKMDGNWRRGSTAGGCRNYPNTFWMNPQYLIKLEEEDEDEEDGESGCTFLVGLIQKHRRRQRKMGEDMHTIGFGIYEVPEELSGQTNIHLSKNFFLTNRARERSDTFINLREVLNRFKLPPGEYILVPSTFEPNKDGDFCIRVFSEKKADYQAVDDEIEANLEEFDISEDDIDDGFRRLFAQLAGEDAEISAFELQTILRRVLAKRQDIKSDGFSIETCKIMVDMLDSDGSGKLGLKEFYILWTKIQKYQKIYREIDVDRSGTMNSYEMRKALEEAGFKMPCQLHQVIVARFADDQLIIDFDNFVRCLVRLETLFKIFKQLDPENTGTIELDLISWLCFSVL
Sequence (P04632 1-268 partner): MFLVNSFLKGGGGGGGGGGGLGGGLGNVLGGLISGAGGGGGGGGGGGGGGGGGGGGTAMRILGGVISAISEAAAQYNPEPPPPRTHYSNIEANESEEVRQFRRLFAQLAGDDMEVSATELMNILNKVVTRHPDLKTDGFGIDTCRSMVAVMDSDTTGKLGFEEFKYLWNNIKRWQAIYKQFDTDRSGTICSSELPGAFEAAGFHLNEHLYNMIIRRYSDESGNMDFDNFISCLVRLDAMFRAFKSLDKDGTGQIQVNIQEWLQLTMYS
Assay: Calpain inhibition continuous fluorescence (FRET) assay, Human Calpain 2/NS1
Assay type: biochemical
Conditions: Column B; read-out: Human Calpain 2/NS1 IC50
pIC50: −log10 of the molar value.
The following compounds are shown together with reported pIC50 values.

Look over these answered cases.
1. CC(=O)NCc1cccc(-n2nc(C)cc2C(=O)N[C@@H](Cc2ccccc2)C(=O)C(N)=O)c1    > 5.52
2. Cc1cc(C(=O)N[C@H](C=O)Cc2ccccc2)n(-c2cnccn2)n1    > 5.52
3. Cc1cc(C(=O)N[C@@H](Cc2ccccc2)C(=O)C(N)=O)n(-c2ccnc(C)n2)n1    > 5.52

API: the following record is the query input.
Data request, read-out pIC50, for Cn1nc(Br)c(C(=O)NC(Cc2ccccc2)C(=O)C(N)=O)c1Cl (stereo not shown) > 5.52
